Measured values drawn from ChEMBL document CHEMBL3745645 for this set.

# MEASUREMENT_NOTES: Cytotoxicity against human HL-60(TB) cells after 48 hrs by SRB assay
# Format: functional
# MEASUREMENT_SETUP: HL-60, 48 h, read-out: LC50 (the source's name)
Listed molecules paired with reported CC50

SMILES_REPR: Cc1nc2cc(Nc3nc(Nc4ccc(F)cc4)nc(-c4ccc(Cl)cc4)n3)ccc2n1Cc1ccccc1
CC50: > 100 µM
//
SMILES_REPR: Cc1nc2ccc(Nc3nc(Cl)nc(Nc4ccc(F)cc4)n3)cc2n1Cc1ccccc1
CC50: > 100 µM
//
SMILES_REPR: Cc1nc2ccc(Nc3nc(NCCN4CCOCC4)nc(Nc4ccc(F)cc4)n3)cc2n1Cc1ccccc1
CC50: 55 µM
//
SMILES_REPR: Cc1nc2cc(Nc3nc(Nc4ccc(F)cc4)nc(-c4cccs4)n3)ccc2n1Cc1ccccc1
CC50: > 100 µM
//
SMILES_REPR: Cc1nc2cc(Nc3nc(Nc4ccc(F)cc4)nc(N4CCCC4)n3)ccc2n1Cc1ccccc1
CC50: > 100 µM
//
SMILES_REPR: Cc1nc2cc(Nc3nc(Nc4ccc(F)cc4)nc(N4CCN(C)CC4)n3)ccc2n1Cc1ccccc1
CC50: 8.47 µM
//
SMILES_REPR: COc1ccc(-c2nc(Nc3ccc(F)cc3)nc(Nc3ccc4c(c3)nc(C)n4Cc3ccccc3)n2)cc1
CC50: > 100 µM

====

# System: Calf thymus DNA
# MEASUREMENT_NOTES: Binding affinity to calf thymus DNA by fluorescence spectrophotometric analysis
# Assay type: nucleic-acid assay
# MEASUREMENT_SETUP: Bos taurus
Reported values of Ka for individual entries
OBSERVATION_TYPE: Ka (×10⁴ /M)

SMILES_REPR: COc1ccc(-c2nc(Nc3ccc(F)cc3)nc(Nc3ccc4c(c3)nc(C)n4Cc3ccccc3)n2)cc1
VALUE_REPORTED: 1.5

SMILES_REPR: Cc1nc2cc(Nc3nc(Nc4ccc(F)cc4)nc(N4CCCC4)n3)ccc2n1Cc1ccccc1
VALUE_REPORTED: 5.46

SMILES_REPR: Cc1nc2ccc(Nc3nc(NCCN4CCOCC4)nc(Nc4ccc(F)cc4)n3)cc2n1Cc1ccccc1
VALUE_REPORTED: 8.58

SMILES_REPR: Cc1nc2cc(Nc3nc(Nc4ccc(F)cc4)nc(N4CCN(C)CC4)n3)ccc2n1Cc1ccccc1
VALUE_REPORTED: 3.36

SMILES_REPR: Cc1nc2cc(Nc3nc(Nc4ccc(F)cc4)nc(-c4cccs4)n3)ccc2n1Cc1ccccc1
VALUE_REPORTED: 4.21

SMILES_REPR: Cc1nc2ccc(Nc3nc(Cl)nc(Nc4ccc(F)cc4)n3)cc2n1Cc1ccccc1
VALUE_REPORTED: 2.97

SMILES_REPR: Cc1nc2cc(Nc3nc(Nc4ccc(F)cc4)nc(-c4ccc(Cl)cc4)n3)ccc2n1Cc1ccccc1
VALUE_REPORTED: 1.97

====

# TESTED_SYSTEM: Dihydrofolate reductase (Homo sapiens, UniProt P00374)
# Sequence (P00374 whole entry): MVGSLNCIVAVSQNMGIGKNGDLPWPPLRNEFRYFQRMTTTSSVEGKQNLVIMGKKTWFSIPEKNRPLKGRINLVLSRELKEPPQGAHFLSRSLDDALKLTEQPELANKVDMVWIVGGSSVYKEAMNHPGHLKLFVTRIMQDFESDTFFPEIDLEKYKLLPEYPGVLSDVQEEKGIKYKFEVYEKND
# MEASUREMENT_NOTES: Inhibition of human recombinant DHFR expressed in Escherichia coli by spectrophotometric analysis
pIC50: −log10 of the molar value.
pIC50 below 6 gives 0; pIC50 at or above it gives 1.

SMILES_REPR: Cc1nc2cc(Nc3nc(Nc4ccc(F)cc4)nc(-c4ccc(Cl)cc4)n3)ccc2n1Cc1ccccc1
GROUP: 0

SMILES_REPR: Cc1nc2cc(Nc3nc(Nc4ccc(F)cc4)nc(N4CCCC4)n3)ccc2n1Cc1ccccc1
GROUP: 1

SMILES_REPR: COc1ccc(-c2nc(Nc3ccc(F)cc3)nc(Nc3ccc4c(c3)nc(C)n4Cc3ccccc3)n2)cc1
GROUP: 1

SMILES_REPR: Cc1nc2ccc(Nc3nc(NCCN4CCOCC4)nc(Nc4ccc(F)cc4)n3)cc2n1Cc1ccccc1
GROUP: 1

SMILES_REPR: Cc1nc2cc(Nc3nc(Nc4ccc(F)cc4)nc(N4CCN(C)CC4)n3)ccc2n1Cc1ccccc1
GROUP: 1

SMILES_REPR: Cc1nc2ccc(Nc3nc(Cl)nc(Nc4ccc(F)cc4)n3)cc2n1Cc1ccccc1
GROUP: 1

====

# Test system: K562
# MEASUREMENT_NOTES: Cytotoxicity against human K562 cells after 48 hrs by SRB assay
# Type: functional
# MEASUREMENT_SETUP: K562, 48 h
Listing of entries alongside the reported LC50.

SMILES_REPR: Cc1nc2ccc(Nc3nc(NCCN4CCOCC4)nc(Nc4ccc(F)cc4)n3)cc2n1Cc1ccccc1
LC50: 55 µM

SMILES_REPR: COc1ccc(-c2nc(Nc3ccc(F)cc3)nc(Nc3ccc4c(c3)nc(C)n4Cc3ccccc3)n2)cc1
LC50: > 100 µM

SMILES_REPR: Cc1nc2ccc(Nc3nc(Cl)nc(Nc4ccc(F)cc4)n3)cc2n1Cc1ccccc1
LC50: > 100 µM

SMILES_REPR: Cc1nc2cc(Nc3nc(Nc4ccc(F)cc4)nc(-c4cccs4)n3)ccc2n1Cc1ccccc1
LC50: > 100 µM

SMILES_REPR: Cc1nc2cc(Nc3nc(Nc4ccc(F)cc4)nc(N4CCCC4)n3)ccc2n1Cc1ccccc1
LC50: > 100 µM

SMILES_REPR: Cc1nc2cc(Nc3nc(Nc4ccc(F)cc4)nc(N4CCN(C)CC4)n3)ccc2n1Cc1ccccc1
LC50: 8.47 µM

SMILES_REPR: Cc1nc2cc(Nc3nc(Nc4ccc(F)cc4)nc(-c4ccc(Cl)cc4)n3)ccc2n1Cc1ccccc1
LC50: > 100 µM

====

# System: HT-29
# MEASUREMENT_NOTES: Cytotoxicity against human HT-29 cells at 10 uM after 48 hrs by SRB assay
# Assay type: functional
Calls of active or inactive are those of the source. The rule behind the calls is not given here.
OBSERVATION_TYPE: growth inhibition (GI)

SMILES_REPR: Cc1nc2cc(Nc3nc(Nc4ccc(F)cc4)nc(N4CCCC4)n3)ccc2n1Cc1ccccc1
VALUE_REPORTED: Active

SMILES_REPR: Cc1nc2ccc(Nc3nc(NCCN4CCOCC4)nc(Nc4ccc(F)cc4)n3)cc2n1Cc1ccccc1
VALUE_REPORTED: Active

SMILES_REPR: Cc1nc2cc(Nc3nc(Nc4ccc(F)cc4)nc(N4CCN(C)CC4)n3)ccc2n1Cc1ccccc1
VALUE_REPORTED: Active

====

# Test system: TK-10
# MEASUREMENT_NOTES: Cytotoxicity against human TK10 cells at 10 uM after 48 hrs by SRB assay
# Assay type: functional
Active and inactive are the calls of the source. The rule behind the calls is not given here.
Classes used: active, inactive

SMILES_REPR: Cc1nc2cc(Nc3nc(Nc4ccc(F)cc4)nc(Nc4ncccn4)n3)ccc2n1Cc1ccccc1
GROUP: inactive
--
SMILES_REPR: Cc1nc2cc(Nc3nc(NCCO)nc(Nc4ccc(F)cc4)n3)ccc2n1Cc1ccccc1
GROUP: inactive
--
SMILES_REPR: Cc1nc2cc(Nc3nc(Nc4ccc(O)cc4)nc(Nc4ccc(F)cc4)n3)ccc2n1Cc1ccccc1
GROUP: inactive
--
SMILES_REPR: Cc1nc2cc(Nc3nc(Nc4ccc(F)cc4)nc(-c4ccc(Cl)cc4)n3)ccc2n1Cc1ccccc1
GROUP: inactive
--
SMILES_REPR: Cc1nc2cc(Nc3nc(Nc4ccc(F)cc4)nc(N4CCCC4)n3)ccc2n1Cc1ccccc1
GROUP: active

====

# MEASUREMENT_NOTES: Cytotoxicity against human PC3 cells at 10 uM after 48 hrs by SRB assay
# Assay type: functional
# MEASUREMENT_SETUP: PC-3, 48 h, read-out: GI
OBSERVATION_TYPE: inhibition of growth at 10 µM (%)

SMILES_REPR: Cc1nc2ccc(Nc3nc(NCCO)nc(Nc4ccc(F)cc4)n3)cc2n1Cc1ccccc1
VALUE_REPORTED: 0.89
//
SMILES_REPR: Cc1nc2ccc(Nc3nc(NCCN4CCOCC4)nc(Nc4ccc(F)cc4)n3)cc2n1Cc1ccccc1
VALUE_REPORTED: 28.5
//
SMILES_REPR: Cc1nc2cc(Nc3nc(Nc4ccc(O)cc4)nc(Nc4ccc(F)cc4)n3)ccc2n1Cc1ccccc1
VALUE_REPORTED: 10.7
//
SMILES_REPR: Cc1nc2cc(Nc3nc(Nc4ccc(F)cc4)nc(-c4cccs4)n3)ccc2n1Cc1ccccc1
VALUE_REPORTED: 70.6
//
SMILES_REPR: Cc1nc2ccc(Nc3nc(Nc4ccc(F)cc4)nc(N4CCCCC4)n3)cc2n1Cc1ccccc1
VALUE_REPORTED: 21.3
//
SMILES_REPR: Cc1nc2ccc(Nc3nc(Cl)nc(Nc4ccc(F)cc4)n3)cc2n1Cc1ccccc1
VALUE_REPORTED: 19.2
//
SMILES_REPR: Cc1nc2cc(Nc3nc(Nc4ccc(F)cc4)nc(N4CCN(C)CC4)n3)ccc2n1Cc1ccccc1
VALUE_REPORTED: 80.3
//
SMILES_REPR: Cc1nc2ccc(Nc3nc(NCCN)nc(Nc4ccc(F)cc4)n3)cc2n1Cc1ccccc1
VALUE_REPORTED: 26.9
//
SMILES_REPR: Cc1nc2cc(Nc3nc(Cl)nc(Nc4ccc(F)cc4)n3)ccc2n1Cc1ccccc1
VALUE_REPORTED: 21.2
//
SMILES_REPR: Cc1nc2cc(Nc3nc(Nc4ccc(F)cc4)nc(Nc4ccc(F)cc4)n3)ccc2n1Cc1ccccc1
VALUE_REPORTED: 23.2
